- particulars: mouse, serum
reportedProperty: half-life (min)
Answers are plain numbers, in min.

Qu. Look up half-life for this substance: H-VDKPPYLPRPRPPRRIYNR-NH2 [compound 18]
Ans. 30

----------
- Tested on: K. pneumoniae 012-3131
- Protocol: The minimum inhibitory concentrations (MIC) of the antimicrobial peptides and peptide derivatives were determined in microdilution assays. […] The plates were incubated at 37° C. for 20 h and then the absorption was measured at 595 nm with a TECAN microtiter plate spectrophotometer (Tecan Trading AG, Mannedorf, Switzerland). The MIC values of all peptides and peptidomimetics were determined in triplicate. […]
No end group written: not given here.
reportedProperty: MIC K. pneumoniae 012-3131 (µg/mL)
Give bare numbers, in µg/mL.

Examples with their reported MIC K. pneumoniae 012-3131 follow.
| substance | MIC K. pneumoniae 012-3131 / µg/mL |
| --- | --- |
| H-VDKPPYLPRPRPPRRIYNRN-OH [compound 16] | 32 |
| VDKPPYLPRPRPPRRIYNR-NH2 [SEQ ID NO. 18] | 4 |
| VDKPPYLPRPRPPRRIYNNR [compound 14] | 32 |

# per-item lookup of MIC K. pneumoniae 012-3131; items listed below
1. H-GNNRPVYIPQPRPPHPRL-OH [compound 87]
2. H-VDKPPYLPRPKPPRRIYNNR-OH [compound 5]
3. H-VDKPPYLPRPRPPRPIYNR-OH [compound 20]
4. H-VDKPPYLPRPRPPRRIYNNR-NH2 [compound 15]
5. H-GKPRPYSPRPTSHPRPIRV-OH [compound 89]

Ans.
1: 16; 2: 64; 3: 64; 4: 16; 5: 4

----------
- assayProtocol: Stability against bacterial proteases in E. coli lysate
- Assay type: in vitro ADME
- particulars: E. coli lysate with 0.5 mg/mL protein concentration, 37° C.
reportedProperty: half-life
// return the numeric value with its unit appended

Qu. Query: half-life; subject: H-VDKPPYLPRPRPPRRIYNR-NH2 [compound 18]
Ans. 1 h

----------
No end group written: not given here.
// endpoint MIC S. typhimurium ATCC 700408 / system S. typhimurium ATCC 700408
One number for each entry, in µg/mL.

| substance | MIC S. typhimurium ATCC 700408 / µg/mL |
| --- | --- |
| H-GKPRPYSPRPTSHPRPIRV-OH [compound 89] | 0.5 |
| VDKPPYLPRPRPPRRIYNR-NH2 [SEQ ID NO. 18] | 0.25 |
| H-GNNRPVYIPQPRPPHPRL-OH [compound 87] | 0.13 |

Kindly consider the entry below.
Qu. Name the reported MIC S. typhimurium ATCC 700408 value associated with the substance H-VDKPPYLPRPRPPRRIYNNR-NH2 [compound 15]
Ans. 0.5

----------
Assign MIC E. coli 045-849 SENTRY to each entry below.
- System: E. coli 045-849 SENTRY
- particulars: 045-849 SENTRY
Numbers only, in mg/L.

| substance | MIC E. coli 045-849 SENTRY (mg/L) |
| --- | --- |
| H-VDKPPYLPRPRPPRRIYNRN-OH [compound 16] | 4 |
| H-VDKPPYLPRPRPPRRIYNNR-NH2 [compound 15] | 4 |
| H-VDKPPYLPRPKPPRRIYNNR-OH [compound 5] | 16 |

Shift focus to the following entry.
Qu. What does the data say about its MIC E. coli 045-849 SENTRY? Entry: H-VDKPPYLPRPRPPRPIYNR-OH [compound 20]
Ans. 8

----------
- particulars: mouse, serum, Half-life in 25% mouse serum, 25% aqueous mouse serum, 37° C., 75 μg/mL peptide
No end group written: not given here.
reportedProperty: half-life (h)
Give bare numbers, in h.

Use these answered entries as a reference point.
| substance | half-life [h] |
| --- | --- |
| H-VDKPPYLPRPRPPRRIYNR-NH2 [compound 18] | 1 |
| H-VDKPPYLPRPRPPRRIYNRN-NH2 [compound 17] | 0.75 |
| H-VDKPPYLPRPRPPRRIYN-OH [SEQ ID NO. 28] | 2 |
| VDKPPYLPRPRPPRPIYNR-NH2 [SEQ ID NO. 60] | 2 |

Qu. Record request: half-life value, item H-VDKPPYLPRPRPPRRIYNN-NH2 [compound 51]
Ans. 2

----------
- Test system: bacterial proteases (E. coli BL21 A1 lysate)
- assayProtocol: Stability against bacterial proteases in E. coli lysate
- Format: in vitro ADME
- particulars: E. coli, E. coli BL21 A1 lysate, pH 7.4, E. coli lysate with 0.5 mg/mL protein concentration, 37° C.
No end group written: not given here.
reportedProperty: half-life at 0.15 μg/mL (h)
Numbers only, in h.

Qu. Short answer please: half-life at 0.15 μg/mL, bacterial proteases (E. coli BL21 A1 lysate), entry VDKPPYLPRPRPPRRIYNR-NH2 [SEQ ID NO. 18]
Ans. 1

----------
- Test system: E. coli BL21 A1
- Assay type: cell-based, Escherichia coli
- particulars: 1% TSB, 20 h at 37° C.
- Description: The minimum inhibitory concentrations (MIC) of the antimicrobial peptides and peptide derivatives were determined in microdilution assays. […] The plates were incubated at 37° C. for 20 h and then the absorption was measured at 595 nm with a TECAN microtiter plate spectrophotometer (Tecan Trading AG, Mannedorf, Switzerland). The MIC values of all peptides and peptidomimetics were determined in triplicate. […]
Non-standard residues stand in square brackets, D forms with d. No end group written: not given here. *: point of attachment. Guan = N-terminal guanidation, N=C(N)*; code O = not defined here
reportedProperty: MIC E. coli BL21 A1 (µg/mL)
One number for each entry, in µg/mL.

| substance | targetEntity | MIC E. coli BL21 A1 [µg/mL] |
| --- | --- | --- |
| 84 (Guan-VDKPPYLPRPRPPRRIYNR-NH2) [compound 84] | E. coli BL21 A1 | 32 |
| H-VDKPPYLPRPRPPRRIYN-OH [SEQ ID NO. 28] | E. coli BL21 A1 | 64 |

Could you tell me MIC E. coli BL21 A1 for each of these substances? They are listed below.
1. VDKPPYLPRPRPPRRIYNR-NH2 [SEQ ID NO. 18]
2. 85 (Guan-VDKPPYLPRPRPPR[code O]IYN[code O]-NH2; reading uncertain; also: printed as Guan-VDKPPYLPRPRPPROIYNO-NH2) [compound 85]
3. 95 ({RQIKIWFQNRRMKWKKC-Ac}-GNNRPVYIPQPRPPHPRL-OH; not fully specified (bridges); printed as RQIKIWFQNRRMKWKKC-(CH2CO-GNNRPVYIPQPRPPHPRL-OH)-; also: N-terminal CH2CO attached to Cys side chain of RQIKIWFQNRRMKWKKC-OH) [compound 95]

Ans.
[4, 64, 8]

----------
Give MIC E. coli SEQ 102ATCC # BAA-4 57 for every item shown.
- Test system: E. coli ATCC BAA-457
- particulars: ¼ Muller-Hinton medium
- Experimental: The minimum inhibitory concentrations (MIC) of the antimicrobial peptides and peptide derivatives were determined in microdilution assays. […] The plates were incubated at 37° C. for 20 h and then the absorption was measured at 595 nm with a TECAN microtiter plate spectrophotometer (Tecan Trading AG, Mannedorf, Switzerland). The MIC values of all peptides and peptidomimetics were determined in triplicate. […]
No end group written: not given here.
Answers are plain numbers, in µg/mL.

Recorded results for 2 substances are shown here.
| substance | MIC E. coli SEQ 102ATCC # BAA-4 57 / µg/mL |
| --- | --- |
| VDKPPYLPRPRPPRRIYNNR [compound 14] | 64 |
| H-VDKPPYLPRPKPPRRIYNNR-OH [compound 5] | 128 |

Answer for every listed entry: what is its MIC E. coli SEQ 102ATCC # BAA-4 57? The entries follow.
1. H-VDKPPYLPRPRPPRPIYNR-OH [compound 20]
2. H-VDKPPYLPRPRPPRRIYNNR-NH2 [compound 15]
3. H-VDKPPYLPRPRPPRRIYNR-NH2 [compound 18]
4. H-GKPRPYSPRPTSHPRPIRV-OH [compound 89]
5. H-GNNRPVYIPQPRPPHPRL-OH [compound 87]
6. H-VDKPPYLPRPRPPRRIYNRN-OH [compound 16]

Ans.
1. 32
2. 32
3. 4
4. 2
5. 1
6. 32

----------
- assayProtocol: in vitro
- particulars: mouse, 25% aqueous mouse serum, Half-life in 25% mouse serum, 37° C., 75 μg/mL peptide
No end group written: not given here.
reportedProperty: half-life at 75 μg/mL (h)
Numbers only, in h.

Qu. Tell me the measured half-life at 75 μg/mL of VDKPPYLPRPRPPRRIYNR-NH2 [SEQ ID NO. 18] , please.
Ans. 1

----------
- Test system: E. coli D31 J. Wilson
- particulars: ¼ Muller-Hinton medium
No end group written: not given here.
Exercise: state measured MIC E. coli D31 J. Wilson for each of the substances provided.
Answers are plain numbers, in µg/mL.

| substance | targetEntity | MIC E. coli D31 J. Wilson / µg/mL |
| --- | --- | --- |
| VDKPPYLPRPRPPRRIYNNR [compound 14] | E. coli D31 J. Wilson | 32 |
| H-VDKPPYLPRPRPPRPIYNR-OH [compound 20] | E. coli D31 J. Wilson | 4 |

// batch mode: one MIC E. coli D31 J. Wilson value per listed entry
1. H-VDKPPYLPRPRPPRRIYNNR-NH2 [compound 15]
2. H-VDKPPYLPRPKPPRRIYNNR-OH [compound 5]
3. VDKPPYLPRPRPPRRIYNR-NH2 [SEQ ID NO. 18]

Ans.
1. 16
2. 64
3. 2
